target: human PDE4D3 (Homo sapiens, UniProt Q08499); construct: His6 (C); made in house; host or cells: insect cells (baculovirus, pFastBac); assay: PDE4D3 Scintillation Proximity Assay (SPA), inhibition of enzyme activity; assay type: biochemical; details: geometric mean of 2-7 determinations unless otherwise indicated (b: ≥8 determinations; c: single determination); 1 μM cAMP, 30 min at 25° C.; read-out: Human PDE4D FL; IC50
Sequence (Q08499 186-808): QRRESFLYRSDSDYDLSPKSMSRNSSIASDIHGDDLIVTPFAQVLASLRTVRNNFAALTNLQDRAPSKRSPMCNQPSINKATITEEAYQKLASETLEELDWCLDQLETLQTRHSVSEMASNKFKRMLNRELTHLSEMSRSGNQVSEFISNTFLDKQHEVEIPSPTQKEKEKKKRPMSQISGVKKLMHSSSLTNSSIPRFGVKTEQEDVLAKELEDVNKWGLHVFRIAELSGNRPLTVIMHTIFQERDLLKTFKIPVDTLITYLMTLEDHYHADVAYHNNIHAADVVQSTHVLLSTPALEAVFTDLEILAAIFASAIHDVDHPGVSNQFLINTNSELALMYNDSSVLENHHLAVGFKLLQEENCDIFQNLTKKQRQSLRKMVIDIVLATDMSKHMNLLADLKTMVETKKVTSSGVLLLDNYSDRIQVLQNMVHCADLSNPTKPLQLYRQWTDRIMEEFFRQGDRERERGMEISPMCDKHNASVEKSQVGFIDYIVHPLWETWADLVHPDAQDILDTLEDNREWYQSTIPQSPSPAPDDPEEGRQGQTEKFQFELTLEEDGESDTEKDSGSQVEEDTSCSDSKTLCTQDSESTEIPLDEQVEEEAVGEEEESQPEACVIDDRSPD
pIC50: −log10 of the molar value. Structures can show the parent of a compound that is named as a salt.
# reported pIC50; entries follow

Worked set:
Fill in the blank: the reported pIC50 of O=C(NC1CC1)c1nn2cccnc2c1-c1ccc2ncoc2c1 is ____.
< 4.84

Item CN(C(=O)c1nn2cccnc2c1-c1ccc(Cl)cc1)C1CC1 [Example 35, hydrochloride salt] has what recorded pIC50?
< 4.52

Which pIC50 reading was recorded for the molecule O=C(c1nn2cccnc2c1-c1cccc(Cl)c1)N1CCC1 ?
< 4.80

Fill in: pIC50 of O=C(c1nn2cccnc2c1-c1ccc(Cl)cc1)N1CCC1 is ___
< 5.03

Quick one: pIC50 for CCCC(=O)Nc1nn2cccnc2c1-c1ccc(Cl)c(F)c1 ?
< 4.52

Using the record for Cc1cc(Cl)ccc1-c1c(C(=O)NC2CC2)nn2cccnc12 , report its pIC50.
< 4.98

Recorded pIC50 for Cc1cc(Cl)ccc1-c1c(C(=O)NC(C)C)nn2cccnc12 , please?
< 4.78

Given O=C(NC1CC1)c1nn2cccnc2c1-c1ccc(Cl)cc1F , state its recorded pIC50.
< 4.78

New cases:
# lookup: pIC50 of CCNC(=O)c1nn2cccnc2c1-c1ccnc(OC(F)F)c1
< 5.31

Dear colleague, I am looking for the recorded pIC50 of the following molecule: COc1cc(-c2c(C(=O)NC3CC3)nn3cccnc23)ccn1
< 4.74

###

target: Human PDE4B1 (Homo sapiens, UniProt Q07343, S133E/S654A/S659A/S661A); construct: His6 (N); thrombin cleavage site (N); made in house; host or cells: insect cells (baculovirus, pFastBac); assay: PDE4B1 Scintillation Proximity Assay (SPA), inhibition of enzyme activity; assay type: biochemical; conditions: geometric mean of 2-7 determinations unless otherwise indicated (b: ≥8 determinations; c: single determination); 1 μM cAMP, 30 min at 25° C.; read-out: Human PDE4B FL; IC50
Sequence (Q07343 122-736 S133E/S654A/S659A/S661A): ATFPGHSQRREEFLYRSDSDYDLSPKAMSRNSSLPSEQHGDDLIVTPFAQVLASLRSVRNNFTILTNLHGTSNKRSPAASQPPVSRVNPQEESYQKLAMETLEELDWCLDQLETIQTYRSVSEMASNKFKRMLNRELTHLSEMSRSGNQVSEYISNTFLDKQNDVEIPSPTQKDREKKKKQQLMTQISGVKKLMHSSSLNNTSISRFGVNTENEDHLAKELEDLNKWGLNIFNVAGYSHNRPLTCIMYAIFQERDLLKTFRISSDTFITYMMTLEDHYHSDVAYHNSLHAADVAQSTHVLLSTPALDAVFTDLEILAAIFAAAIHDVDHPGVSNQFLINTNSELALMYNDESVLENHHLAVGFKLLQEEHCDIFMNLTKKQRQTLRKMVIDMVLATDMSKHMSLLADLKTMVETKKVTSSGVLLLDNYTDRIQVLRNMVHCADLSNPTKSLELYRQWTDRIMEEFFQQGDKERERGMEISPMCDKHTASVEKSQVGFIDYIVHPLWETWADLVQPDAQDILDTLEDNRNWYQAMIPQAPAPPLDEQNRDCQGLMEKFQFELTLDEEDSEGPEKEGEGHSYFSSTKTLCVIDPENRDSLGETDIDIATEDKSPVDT
Threshold-based label: IC50 under 70 nM gives criterion met, IC50 not under 70 nM gives criterion not met.

Some entries whose results are on file:
I wonder whether O=C(NC1CC1)c1nn2cccnc2c1-c1cc(F)c(Cl)cc1F [Example 47] has IC50 below 70 nM. Can you tell?
criterion met

Please check: IC50 for O=C(c1nn2cccnc2c1-c1ccc(Cl)cc1)N1CCC1 [Example 1] , strictly under 70 nM or not?
criterion met

Is IC50 strictly under 70 nM for the entry O=C(NC1CC1)c1nn2cc(F)cnc2c1-c1cc(F)c(Cl)cc1F [Example 72] ?
criterion met

Further cases:
I'd appreciate it if you could check whether CC1(NC(=O)c2nn3cccnc3c2-c2ccc(Cl)cc2)CC1 [Example 11] has IC50 smaller than 70 nM.
criterion met

Given the entry CC1CC1NC(=O)c1nn2cccnc2c1-c1ccc(Cl)cc1 (centres unmarked) [Example 34] , would its reported IC50 be below 70 nM?
criterion not met

In plain terms, does N#Cc1c(F)cc(-c2c(C(=O)N3CCC3)nn3cccnc23)cc1F [Example 62] come in under 70 nM for IC50?
criterion met

Threshold test, IC50 < 70 nM: N#Cc1cc(F)c(-c2c(C(=O)NC3CC3)nn3cccnc23)cc1F [Example 45]
criterion met

Record N#Cc1ccc(-c2c(C(=O)N3CCC3)nn3cccnc23)c(F)c1 [Example 75] : is its IC50 strictly below 70 nM?
criterion not met

###

target: Human PDE4B1 (Homo sapiens, UniProt Q07343, S133E/S654A/S659A/S661A); construct: His6 (N); thrombin cleavage site (N); made in house; host or cells: insect cells (baculovirus, pFastBac); experiment: PDE4B1 Scintillation Proximity Assay (SPA), inhibition of enzyme activity; assay type: biochemical; conditions: geometric mean of 2-7 determinations unless otherwise indicated (b: ≥8 determinations; c: single determination); 1 μM cAMP, 30 min at 25° C.; read-out: Human PDE4B FL; IC50
Mark Fulfilled only for IC50 values smaller than 200 nM; exact matches and larger values are Not fulfilled.

IC50 under 200 nM? Item: N#Cc1ccc(-c2c(C(=O)N3CCC3)nn3cccnc23)cc1F
Fulfilled

Others:
For CCCC(=O)Nc1nn2cccnc2c1-c1ccc(Cl)c(F)c1 , is the recorded IC50 below the cut-off of 200 nM?
Not fulfilled

Threshold test, IC50 < 200 nM: O=C(N[C@@H]1C[C@@H]1F)c1nn2cccnc2c1-c1ccc(Cl)c(F)c1
Fulfilled

Dear colleague, could you confirm whether IC50 of O=C(NC12CC(C1)C2)c1nn2cccnc2c1-c1ccc(Cl)cc1 falls below 200 nM? Thanks.
Fulfilled

Take the molecule O=C(NC1CC1(F)F)c1nn2cccnc2c1-c1ccc(Cl)cc1 (stereo not drawn) and say whether its IC50 is less than 200 nM.
Fulfilled

Would you kindly verify if IC50 of CNC(=O)c1nn2cccnc2c1-c1ccc(Cl)cc1 is strictly less than 200 nM?
Not fulfilled

###

# IC50 per entry
molecular target: Human PDE4B1 (Homo sapiens, UniProt Q07343, S133E/S654A/S659A/S661A); construct: His6 (N); thrombin cleavage site (N); made in house; host or cells: insect cells (baculovirus, pFastBac); experiment: PDE4B1 Scintillation Proximity Assay (SPA), inhibition of enzyme activity; format: biochemical; conditions: geometric mean of 2-7 determinations unless otherwise indicated (b: ≥8 determinations; c: single determination); 1 μM cAMP, 30 min at 25° C.; read-out: Human PDE4B FL; IC50
Where a name gives a salt, the structure may show the parent alone.
Give the number; nM is assumed, so skip it.

Consider the following illustrative entries.
Would you kindly share the measured IC50 for CCNC(=O)c1nn2cccnc2c1-c1ccc(Cl)cc1C [Example 18] ?
150

Given the compound O=C(c1nn2cccnc2c1-c1cc(Cl)ccc1F)N1CCC1 [Example 74] , what is its reported IC50?
45.8

Can you share its IC50? I mean this compound: CCNC(=O)c1nn2cccnc2c1-c1cc(F)c(C#N)cc1C [Example 16]
54.3

Would you mind telling me what IC50 value was observed for CCNC(=O)c1nn2cccnc2c1-c1ccc(Cl)cc1 [Example 52] ?
234

Could you tell me which IC50 is on file for O=C(NC1CC1)c1nn2cc(F)cnc2c1-c1ccc(Cl)c(F)c1 [Example 59] ?
4.93

# query: IC50 of entry CCCNC(=O)c1nn2cccnc2c1-c1ccc(Cl)cc1 [Example 2]
34.6

---
// IC50 lookup, key: CCNC(=O)c1nn2cccnc2c1-c1ccc(Cl)c(F)c1 [Example 53]
32

Bench note: what IC50 did O=C(Nc1ncccn1)c1nn2cccnc2c1-c1ccc(Cl)cc1 [Example 8] show?
1090

Which value of IC50 has been reported for O=C(NC1(C(F)(F)F)CC1)c1nn2cccnc2c1-c1ccc(Cl)cc1 [Example 36, hydrochloride salt] in the records?
452
